Source listed as patent US20240366589A1.

Each entry below lists one item and its recorded IC50 value.
# STUDY_TARGET: Human NHE3 (Homo sapiens, UniProt P48764)
# Construct: expressed in transfected cells; host or cells: Opossum kidney (OK) cells (ATCC), electroporation
# Sequence (P48764 26-834): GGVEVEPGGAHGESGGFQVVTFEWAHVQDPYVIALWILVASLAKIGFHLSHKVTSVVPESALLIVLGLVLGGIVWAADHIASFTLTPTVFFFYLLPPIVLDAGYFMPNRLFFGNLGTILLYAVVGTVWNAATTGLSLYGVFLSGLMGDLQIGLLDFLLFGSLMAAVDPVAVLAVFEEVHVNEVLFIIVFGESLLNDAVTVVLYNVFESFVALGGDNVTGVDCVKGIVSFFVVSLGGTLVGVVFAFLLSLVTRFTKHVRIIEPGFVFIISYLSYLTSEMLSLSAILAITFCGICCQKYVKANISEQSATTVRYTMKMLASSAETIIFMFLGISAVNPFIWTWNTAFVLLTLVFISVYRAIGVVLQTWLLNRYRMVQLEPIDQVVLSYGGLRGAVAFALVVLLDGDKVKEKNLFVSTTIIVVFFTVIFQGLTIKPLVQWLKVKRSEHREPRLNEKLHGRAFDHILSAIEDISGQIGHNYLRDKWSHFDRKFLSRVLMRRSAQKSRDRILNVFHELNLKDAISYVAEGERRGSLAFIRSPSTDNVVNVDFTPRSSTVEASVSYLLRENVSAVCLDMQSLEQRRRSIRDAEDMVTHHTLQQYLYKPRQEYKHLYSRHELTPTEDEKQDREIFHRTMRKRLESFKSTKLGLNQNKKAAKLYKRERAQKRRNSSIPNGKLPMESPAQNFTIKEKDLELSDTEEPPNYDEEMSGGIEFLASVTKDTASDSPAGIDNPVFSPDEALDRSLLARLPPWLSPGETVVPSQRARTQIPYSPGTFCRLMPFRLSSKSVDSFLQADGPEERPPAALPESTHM
# PROCEDURE_DETAILS: Cell-based NHE3 activity under prompt conditions (OK cells, BCECF pH recovery), human NHE3
# CONDITIONS_USED: prompt conditions; read-out: Prompt Human NHE3 pIC50 (converted)

MOLECULE	BOUND_SIGN	IC50, nM
NS(=O)(=O)c1ccc(O[C@H]2c3ccccc3C[C@@H]2N2CCCCC2)cc1 (racemic)	=	2510
O=C(NCCOCCOCCOCCNS(=O)(=O)c1ccc(OC2c3ccccc3CC2N2CCCCC2)cc1)C(O)C(O)C(=O)NCCOCCOCCOCCNS(=O)(=O)c1ccc(OC2c3ccccc3CC2N2CCCCC2)cc1 (mixture of isomers)	=	12.6
O=C(NCCCCNC(=O)NCCOCCOCCNS(=O)(=O)c1ccc(O[C@H]2c3ccccc3C[C@@H]2N2CCCC2)cc1)NCCOCCOCCNS(=O)(=O)c1ccc(O[C@H]2c3ccccc3C[C@@H]2N2CCCC2)cc1	≥	10000
O=C(NCCCCNC(=O)NCCOCCOCCNS(=O)(=O)c1ccc(O[C@H]2c3ccccc3C[C@@H]2N2CCCCC2)cc1)NCCOCCOCCNS(=O)(=O)c1ccc(O[C@H]2c3ccccc3C[C@@H]2N2CCCCC2)cc1 (racemic)	=	15.8
CC1Cc2c(Cl)cc(Cl)cc2[C@H](c2cccc(S(=O)(=O)NCCOCCOCCNC(=O)CCC(CCC(=O)NCCOCCOCCNS(=O)(=O)c3cccc([C@@H]4CN(C)Cc5c(Cl)cc(Cl)cc54)c3)(CCC(=O)NCCOCCOCCNS(=O)(=O)c3cccc([C@@H]4CN(C)Cc5c(Cl)cc(Cl)cc54)c3)NC(=O)N[C@@H](CC(=O)O)C(=O)O)c2)C1 (stereo partly drawn)	=	20
O=C(O)CN(CCN(CC(=O)O)CC(=O)NCCOCCOCCNS(=O)(=O)c1ccc(O[C@H]2c3ccccc3C[C@@H]2N2CCCCC2)cc1)CC(=O)NCCOCCOCCNS(=O)(=O)c1ccc(O[C@H]2c3ccccc3C[C@@H]2N2CCCCC2)cc1 (racemic)	=	79.4

---

# STUDY_TARGET: Rat NHE3 (Rattus norvegicus)
# Construct: expressed in transfected cells; host or cells: Opossum kidney (OK) cells (ATCC), electroporation
# Sequence (P26433 29-831): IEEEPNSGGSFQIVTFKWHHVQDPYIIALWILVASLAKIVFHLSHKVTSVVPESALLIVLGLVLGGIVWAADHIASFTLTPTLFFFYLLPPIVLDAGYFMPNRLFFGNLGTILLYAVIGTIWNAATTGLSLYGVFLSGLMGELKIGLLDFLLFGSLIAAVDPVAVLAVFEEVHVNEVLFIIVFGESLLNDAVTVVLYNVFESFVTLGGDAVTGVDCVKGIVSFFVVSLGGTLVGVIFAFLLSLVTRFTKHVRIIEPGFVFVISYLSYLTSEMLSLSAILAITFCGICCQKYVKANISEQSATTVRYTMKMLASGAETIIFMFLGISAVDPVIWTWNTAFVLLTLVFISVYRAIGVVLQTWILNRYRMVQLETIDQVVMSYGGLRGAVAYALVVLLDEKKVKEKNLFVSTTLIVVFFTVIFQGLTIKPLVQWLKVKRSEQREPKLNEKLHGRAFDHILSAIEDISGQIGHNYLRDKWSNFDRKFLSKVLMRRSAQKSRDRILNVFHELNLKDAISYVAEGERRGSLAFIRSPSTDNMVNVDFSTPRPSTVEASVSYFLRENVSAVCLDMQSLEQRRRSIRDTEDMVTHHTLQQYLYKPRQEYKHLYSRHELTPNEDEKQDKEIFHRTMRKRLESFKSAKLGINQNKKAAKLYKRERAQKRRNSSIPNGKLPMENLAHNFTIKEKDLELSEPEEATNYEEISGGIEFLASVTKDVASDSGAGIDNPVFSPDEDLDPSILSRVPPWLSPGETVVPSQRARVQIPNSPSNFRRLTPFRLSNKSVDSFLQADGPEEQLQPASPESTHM
# PROCEDURE_DETAILS: Cell-based NHE3 activity under prompt conditions (OK cells, BCECF pH recovery), rat NHE3
# CONDITIONS_USED: prompt conditions
Catalogue of compounds with associated Prompt Rat NHE3 pIC50

SMILES_REPRESENTATION	BOUND_SIGN	Prompt Rat NHE3 pIC50
N=C(N)Nc1nc(-c2ccc(N3CCN(CCOCCOCCOCCNC(=O)NCCOCCOCCNC(=O)NCCOCCOCCOCCN4CCN(c5ccc(-c6nc(NC(=N)N)nc7ccc(Cl)cc67)cc5)CC4)CC3)cc2)c2cc(Cl)ccc2n1	=	7.30
CN1Cc2c(Cl)cc(Cl)cc2[C@@H](c2cccc(S(=O)(=O)NCCOCCOCCNC(=O)NCCCCNC(=O)NCCOCCOCCNS(=O)(=O)c3cccc([C@@H]4CN(C)Cc5c(Cl)cc(Cl)cc54)c3)c2)C1	=	7.30
C/C(=C\c1cc(F)c(Oc2ccc(S(=O)(=O)NCCOCCOCCOCCNC(=O)NCCCCNC(=O)NCCOCCOCCOCCNS(=O)(=O)c3ccc(Oc4c(F)cc(/C=C(\C)C(=O)N=C(N)N)cc4F)cc3)cc2)c(F)c1)C(=O)N=C(N)N	=	7.50
CN1Cc2c(Cl)cc(Cl)cc2[C@H](c2cccc(S(=O)(=O)NCCOCCOCCNC(=O)CCC(CCC(=O)NCCOCCOCCNS(=O)(=O)c3cccc([C@@H]4CN(C)Cc5c(Cl)cc(Cl)cc54)c3)(CCC(=O)NCCOCCOCCNS(=O)(=O)c3cccc([C@@H]4CN(C)Cc5c(Cl)cc(Cl)cc54)c3)NC(=O)CCC(=O)O)c2)C1	=	7.50
CN1Cc2c(Cl)cc(Cl)cc2[C@H](c2cccc(S(=O)(=O)NCCOCCOCCNC(=O)CN(CCOCCOCCN(CC(=O)NCCOCCOCCNS(=O)(=O)c3cccc([C@@H]4CN(C)Cc5c(Cl)cc(Cl)cc54)c3)CC(=O)NCCOCCOCCNS(=O)(=O)c3cccc([C@@H]4CN(C)Cc5c(Cl)cc(Cl)cc54)c3)CC(=O)NCCOCCOCCNS(=O)(=O)c3cccc([C@@H]4CN(C)Cc5c(Cl)cc(Cl)cc54)c3)c2)C1	=	5.80
O=C(NCCOCCOCCNS(=O)(=O)c1ccc(O[C@H]2c3ccccc3C[C@@H]2N2CCCCC2)cc1)c1cccc(C(=O)NCCOCCOCCNS(=O)(=O)c2ccc(O[C@H]3c4ccccc4C[C@@H]3N3CCCCC3)cc2)c1	<	5.00
CN1Cc2c(Cl)cc(Cl)cc2[C@H](c2cccc(S(=O)(=O)NCCOCCOCCNC(=O)CCC(CCC(=O)NCCOCCOCCNS(=O)(=O)c3cccc([C@@H]4CN(C)Cc5c(Cl)cc(Cl)cc54)c3)(CCC(=O)NCCOCCOCCNS(=O)(=O)c3cccc([C@@H]4CN(C)Cc5c(Cl)cc(Cl)cc54)c3)NC(=O)CCCC(=O)O)c2)C1	=	7.30

---

# Tested on: phosphorus and calcium levels in the urine of rats
# PROCEDURE_DETAILS: Urinary excretion of phosphate and calcium in rats (16 h overnight urine)
# Format: in vivo, rat
# CONDITIONS_USED: rats, oral gavage, dose 10 mg/kg, 16 h post-dose

SMILES_REPRESENTATION	UNITS_LABEL	Urine P % of control
CN1Cc2c(Cl)cc(Cl)cc2[C@H](c2cccc(S(=O)(=O)NCCOCCOCCNC(=O)CCC(N)(CCC(=O)NCCOCCOCCNS(=O)(=O)c3cccc([C@@H]4CN(C)Cc5c(Cl)cc(Cl)cc54)c3)CCC(=O)NCCOCCOCCNS(=O)(=O)c3cccc([C@@H]4CN(C)Cc5c(Cl)cc(Cl)cc54)c3)c2)C1	%	69
CC(C)CCC[C@@H](C)[C@H]1CC[C@H]2[C@@H]3CC=C4C[C@@H](OC(=O)NCCOCCOCCOCCNS(=O)(=O)c5cccc([C@@H]6CN(C)Cc7c(Cl)cc(Cl)cc76)c5)CC[C@]4(C)[C@H]3CC[C@]12C	%	278

---

# STUDY_TARGET: Human NHE3 (Homo sapiens)
# Construct: expressed in transfected cells; host or cells: Opossum kidney (OK) cells (ATCC), electroporation
# PROCEDURE_DETAILS: Cell-based NHE3 activity under prompt conditions (OK cells, BCECF pH recovery), human NHE3
# CONDITIONS_USED: prompt conditions
Binary call on Prompt Human NHE3 pIC50: true (1) from 7 upward, false (0) beneath that.

SMILES_REPRESENTATION	STUDY_TARGET	ASSIGNED_LABEL
O=C(O)CN(CCN(CC(=O)O)CC(=O)NCCOCCOCCNS(=O)(=O)c1ccc(O[C@H]2c3ccccc3C[C@@H]2N2CCCCC2)cc1)CC(=O)NCCOCCOCCNS(=O)(=O)c1ccc(O[C@H]2c3ccccc3C[C@@H]2N2CCCCC2)cc1	Human NHE3 (Homo sapiens)	true (1)
CN1Cc2c(Cl)cc(Cl)cc2[C@H](c2cccc(S(=O)(=O)NCCOCCOCCNC(=O)CCC(CCCNC(=O)NCCOCCOCCNS(=O)(=O)c3cccc([C@@H]4CN(C)Cc5c(Cl)cc(Cl)cc54)c3)(CCC(=O)NCCOCCOCCNS(=O)(=O)c3cccc([C@@H]4CN(C)Cc5c(Cl)cc(Cl)cc54)c3)NC(=O)NCP(=O)(O)O)c2)C1	Human NHE3 (Homo sapiens)	false (0)
NCCOCCOCCOc1cccc(-c2nc(N=C(N)N)nc3ccc(Cl)cc23)c1	Human NHE3 (Homo sapiens)	true (1)
CN(CC(=O)NCCOCCOCCNC(=O)NCCOCCOCCOCCN1CCN(c2ccc(-c3nc(N=C(N)N)nc4ccc(Cl)cc34)cc2)CC1)CC(=O)NCCOCCOCCNC(=O)NCCOCCOCCOCCN1CCN(c2ccc(-c3nc(N=C(N)N)nc4ccc(Cl)cc34)cc2)CC1	Human NHE3 (Homo sapiens)	true (1)
CN1Cc2c(Cl)cc(Cl)cc2[C@H](c2cccc(S(=O)(=O)NCCOCCOCCNC(=O)NCCN(CCNC(=O)NCCOCCOCCNS(=O)(=O)c3cccc([C@@H]4CN(C)Cc5c(Cl)cc(Cl)cc54)c3)CCNC(=O)NCCOCCOCCNS(=O)(=O)c3cccc([C@@H]4CN(C)Cc5c(Cl)cc(Cl)cc54)c3)c2)C1	Human NHE3 (Homo sapiens)	false (0)
CN(CC(=O)NCCOCCOCCNC(=O)NCCOCCOCCOCCN1CCN(c2cccc(-c3nc(NC(=N)N)nc4ccc(Cl)cc34)c2)CC1)CC(=O)NCCOCCOCCNC(=O)NCCOCCOCCOCCN1CCN(c2cccc(-c3nc(NC(=N)N)nc4ccc(Cl)cc34)c2)CC1	Human NHE3 (Homo sapiens)	true (1)
CN1Cc2c(Cl)cc(Cl)cc2[C@H](c2cccc(S(=O)(=O)NCCOCCOCCOCCNC(=O)CC(CC(=O)NCCOCCOCCOCCNS(=O)(=O)c3cccc([C@@H]4CN(C)Cc5c(Cl)cc(Cl)cc54)c3)C(=O)NCCOCCOCCOCCNS(=O)(=O)c3cccc([C@@H]4CN(C)Cc5c(Cl)cc(Cl)cc54)c3)c2)C1	Human NHE3 (Homo sapiens)	true (1)
CN1Cc2c(Cl)cc(Cl)cc2[C@H](c2cccc(S(=O)(=O)NCCOCCOCCOCCNC(=O)CC(O)(CC(=O)NCCOCCOCCOCCNS(=O)(=O)c3cccc([C@@H]4CN(C)Cc5c(Cl)cc(Cl)cc54)c3)C(=O)NCCOCCOCCOCCNS(=O)(=O)c3cccc([C@@H]4CN(C)Cc5c(Cl)cc(Cl)cc54)c3)c2)C1	Human NHE3 (Homo sapiens)	true (1)
CN(CC(=O)NCCOCCOCCNC(=O)NCCOCCOCCN1CCN(c2cccc(-c3nc(NC(=N)N)nc4ccc(Cl)cc34)c2)CC1)CC(=O)NCCOCCOCCNC(=O)NCCOCCOCCN1CCN(c2cccc(-c3nc(NC(=N)N)nc4ccc(Cl)cc34)c2)CC1	Human NHE3 (Homo sapiens)	true (1)
CN1Cc2c(Cl)cc(Cl)cc2[C@H](c2cccc(S(=O)(=O)NCCOCCOCCNC(=O)NCCN(CCNC(=O)NCCOCCOCCNS(=O)(=O)c3cccc([C@@H]4CN(C)Cc5c(Cl)cc(Cl)cc54)c3)C(=O)NCCCCCCCCCCCCNC(=O)N(CCNC(=O)NCCOCCOCCNS(=O)(=O)c3cccc([C@@H]4CN(C)Cc5c(Cl)cc(Cl)cc54)c3)CCNC(=O)NCCOCCOCCNS(=O)(=O)c3cccc([C@@H]4CN(C)Cc5c(Cl)cc(Cl)cc54)c3)c2)C1	Human NHE3 (Homo sapiens)	false (0)
